tested on: T84; experiment: cells; format: functional, cell-based, Homo sapiens; conditions: Homo sapiens, T84;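 further: growth inhibition measured with a cell viability readout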
Description: SANGER: Inhibition of human T84 cell growth in a cell viability assay.
Quantity: IC50

Solved entries:
- Compound: "COc1cc2c(Nc3ccc(NC(=O)c4ccccc4)cc3)ncnc2cc1OCCCN1CCOCC1"
  Test Result: "> 4 µM"
- Compound: "CS(=O)(=O)c1ccc(C(=O)Nc2ccc(Cl)c(-c3ccccn3)c2)c(Cl)c1 [VISMODEGIB]"
  Test Result: "> 10 µM"

Consider the compound CC(C)CCN1c2nc(Nc3cc(F)c(O)c(F)c3)ncc2N(C)C(=O)C1C (stereo not drawn) and give its measured IC50.
> 5 µM

---

test system: RERF-LC-MS; test: cells; format: functional, cell-based, Homo sapiens; details: Homo sapiens, RERF-LC-MS;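 further: growth inhibition of human RERF-LC-MS cells, read out by a cell viability assay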
Description: SANGER: Inhibition of human RERF-LC-MS cell growth in a cell viability assay.
Quantity: IC50

Solved entries:
- Compound: "COc1cc2c(Nc3ccc(NC(=O)c4ccccc4)cc3)ncnc2cc1OCCCN1CCOCC1"
  IC50: "> 4000 nM"
- Compound: "N#Cc1c(O)c2c(-c3ccc(-c4ccccc4O)cc3)csc2[nH]c1=O"
  IC50: "> 1020 nM"

# next compound below
Consider the compound Cc1cn(-c2cc(NC(=O)c3ccc(C)c(Nc4nccc(-c5cccnc5)n4)c3)cc(C(F)(F)F)c2)cn1 [NILOTINIB] and give its measured IC50.
> 2000 nM

---

tested on: ES8; test: cells; type: functional, cell-based, Homo sapiens; conditions: Homo sapiens, ES8;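 further: growth inhibition of human ES8 cells, read out with a cell viability assay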
Description: SANGER: Inhibition of human ES8 cell growth in a cell viability assay.
pIC50: −log10 of the molar value.
Quantity: pIC50

Solved entries:
- Compound: "N#Cc1c(O)c2c(-c3ccc(-c4ccccc4O)cc3)csc2[nH]c1=O"
  Quantity: "pIC50"
  Test Result: "< 5.99"
- Compound: "CS(=O)(=O)c1ccc(C(=O)Nc2ccc(Cl)c(-c3ccccn3)c2)c(Cl)c1"
  Quantity: "pIC50"
  Test Result: "< 5.00"
- Compound: "COc1cc(-c2nn([C@H]3CC[C@H](N4CCN(C(C)=O)CC4)CC3)c3ncnc(N)c23)ccc1NC(=O)c1cc2ccccc2n1C"
  Quantity: "pIC50"
  Test Result: "< 5.29"
- Compound: "Nc1cccc2c1CN(C1CCC(=O)NC1=O)C2=O (stereo unspecified) [LENALIDOMIDE]"
  Quantity: "pIC50"
  Test Result: "< 5.30"
- Compound: "CC[C@H](CO)Nc1nc(NCc2ccccc2)c2ncn(C(C)C)c2n1"
  Quantity: "pIC50"
  Test Result: "< 4.80"

# next compound below
Notebook: pull reported pIC50 for ES8, entry Nc1ccn([C@@H]2O[C@H](CO)[C@@H](O)C2(F)F)c(=O)n1
> 8.40

---

// IC50 lookup, one value per entry
system: BV-173; assay: cells; assay type: functional, cell-based, Homo sapiens; conditions: Homo sapiens, BV-173
Description: SANGER: Inhibition of human BV-173 cell growth in a cell viability assay.

Solved entries:
- Structure Smiles String: "C=C(c1ccc(C(=O)O)cc1)c1cc2c(cc1C)C(C)(C)CCC2(C)C"
  IC50: "> 8 µM"
- Structure Smiles String: "CC[C@H](CO)Nc1nc(NCc2ccccc2)c2ncn(C(C)C)c2n1"
  IC50: "> 16 µM"

# next compound below
Consider the compound Oc1ccc2ccccc2c1SSc1c(O)ccc2ccccc12 and give its measured IC50.
> 32 µM

---

tested on: GOTO; test: cells; assay type: functional, cell-based, Homo sapiens; details: Homo sapiens, GOTO
Description: SANGER: Inhibition of human GOTO cell growth in a cell viability assay.
pIC50: −log10 of the molar value.
Quantity: pIC50

Solved entries:
- Compound: "CCN(CC)CCCCNc1ncc2cc(-c3cc(OC)cc(OC)c3)c(NC(=O)NC(C)(C)C)nc2n1 [PD-173074]"
  Target Or System: "GOTO"
  pIC50: "< 5.70"
- Compound: "Oc1ccc2ccccc2c1SSc1c(O)ccc2ccccc12"
  Target Or System: "GOTO"
  pIC50: "< 4.49"

# next compound below
Consider the compound COc1cc(N2CCN(C)CC2)ccc1Nc1ncc2c(n1)N(C)c1ccccc1C(=O)N2C and give its measured pIC50.
< 5.10

---

system: LCLC-97TM1; test: cells; type: functional, cell-based, Homo sapiens; conditions: Homo sapiens, LCLC-97TM1;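 further: cell viability assay measuring growth inhibition of human LCLC-97TM1 cells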
Description: SANGER: Inhibition of human LCLC-97TM1 cell growth in a cell viability assay.
Quantity: IC50

- Compound: "Nc1cccc2c1CN(C1CCC(=O)NC1=O)C2=O (stereo not drawn) [LENALIDOMIDE]"
  Target Or System: "LCLC-97TM1"
  Test Result: "> 5 µM"

Notebook: pull reported IC50 for LCLC-97TM1, entry CS(=O)(=O)c1ccc(C(=O)Nc2ccc(Cl)c(-c3ccccn3)c2)c(Cl)c1
> 10 µM

Another compound: Cc1cn(-c2cc(NC(=O)c3ccc(C)c(Nc4nccc(-c5cccnc5)n4)c3)cc(C(F)(F)F)c2)cn1
> 2 µM

---

tested on: IGR-1; assay: cells; assay type: functional, cell-based, Homo sapiens; conditions: Homo sapiens, IGR-1
Description: SANGER: Inhibition of human IGR-1 cell growth in a cell viability assay.
pIC50: −log10 of the molar value.
Quantity: pIC50

Solved entries:
- Compound: "CCC/C=C/C=C/C(=O)O[C@H]1/C(=C/C(=O)OC)C[C@H]2C[C@H]([C@@H](C)O)OC(=O)C[C@H](O)C[C@@H]3C[C@H](OC(C)=O)C(C)(C)[C@](O)(C[C@@H]4C/C(=C/C(=O)OC)C[C@H](/C=C/C(C)(C)[C@]1(O)O2)O4)O3 [BRYOSTATIN 1]"
  Target Or System: "IGR-1"
  pIC50: "< 8.10"
- Compound: "Oc1ccc2ccccc2c1SSc1c(O)ccc2ccccc12"
  Target Or System: "IGR-1"
  pIC50: "< 4.49"

# next compound below
Notebook: pull reported pIC50 for IGR-1, entry Cc1cn(-c2cc(NC(=O)c3ccc(C)c(Nc4nccc(-c5cccnc5)n4)c3)cc(C(F)(F)F)c2)cn1 [NILOTINIB]
< 5.70

---

// IC50 lookup, one value per entry
tested on: LB996-RCC; assay: cells; type: functional, cell-based, Homo sapiens; settings: Homo sapiens, LB996-RCC
Description: SANGER: Inhibition of human LB996-RCC cell growth in a cell viability assay.

- Structure Smiles String: "CC1(C)CNc2cc(NC(=O)c3cccnc3NCc3ccncc3)ccc21"
  Test Result: "> 2 µM"
- Structure Smiles String: "Oc1ccc2ccccc2c1SSc1c(O)ccc2ccccc12"
  Test Result: "> 32 µM"

Consider the molecule N#Cc1c(O)c2c(-c3ccc(-c4ccccc4O)cc3)csc2[nH]c1=O and give its measured IC50.
> 1.02 µM

---

// pIC50 lookup, one value per entry
tested on: G-402; assay: cells; assay type: functional, cell-based, Homo sapiens; details: Homo sapiens, G-402
Description: SANGER: Inhibition of human G-402 cell growth in a cell viability assay.
pIC50: −log10 of the molar value.

Solved entries:
- Structure Smiles String: "CCC/C=C/C=C/C(=O)O[C@H]1/C(=C/C(=O)OC)C[C@H]2C[C@H]([C@@H](C)O)OC(=O)C[C@H](O)C[C@@H]3C[C@H](OC(C)=O)C(C)(C)[C@](O)(C[C@@H]4C/C(=C/C(=O)OC)C[C@H](/C=C/C(C)(C)[C@]1(O)O2)O4)O3"
  Target Or System: "G-402"
  pIC50: "< 8.10"
- Structure Smiles String: "Oc1ccc2ccccc2c1SSc1c(O)ccc2ccccc12"
  Target Or System: "G-402"
  pIC50: "< 4.49"

Consider the compound COc1cc2c(Nc3ccc(NC(=O)c4ccccc4)cc3)ncnc2cc1OCCCN1CCOCC1 and give its measured pIC50.
< 5.40

Another compound: Nc1ccn([C@@H]2O[C@H](CO)[C@@H](O)C2(F)F)c(=O)n1
> 8.40

---

// IC50 lookup, one value per entry
system: A101D; experiment: cells; type: functional, cell-based, Homo sapiens; details: Homo sapiens, A101D;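 further: growth inhibition of the cell line, measured with a viability assay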
Description: SANGER: Inhibition of human A101D cell growth in a cell viability assay.

- Compound: "CCN(CC)CCCCNc1ncc2cc(-c3cc(OC)cc(OC)c3)c(NC(=O)NC(C)(C)C)nc2n1"
  Test Result: "> 2 µM"
- Compound: "COc1cc2ncn(-c3cc(OCc4ccccc4S(C)(=O)=O)c(C#N)s3)c2cc1OC [GSK-319347A]"
  Test Result: "> 5 µM"

# next compound below
Consider the compound N#Cc1c(O)c2c(-c3ccc(-c4ccccc4O)cc3)csc2[nH]c1=O and give its measured IC50.
> 1.02 µM

---

system: NB69; assay: cells; format: functional, cell-based, Homo sapiens; conditions: Homo sapiens, NB69;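 further: growth inhibition of NB69 cells, determined by a cell viability assay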
Description: SANGER: Inhibition of human NB69 cell growth in a cell viability assay.
Quantity: IC50

- Molecule: "OCCCNc1cc(-c2ccnc(Nc3cccc(Cl)c3)n2)ccn1"
  Target Or System: "NB69"
  Test Result: "> 0.256 µM"

Notebook: pull reported IC50 for NB69, entry C=C(c1ccc(C(=O)O)cc1)c1cc2c(cc1C)C(C)(C)CCC2(C)C [BEXAROTENE]
> 8 µM

Another molecule: CS(=O)(=O)c1ccc(C(=O)Nc2ccc(Cl)c(-c3ccccn3)c2)c(Cl)c1 [VISMODEGIB]
> 10 µM

---

// pIC50 lookup, one value per entry
system: NCI-H1793; test: cells; format: functional, cell-based, Homo sapiens; settings: Homo sapiens, NCI-H1793
Description: SANGER: Inhibition of human NCI-H1793 cell growth in a cell viability assay.
pIC50: −log10 of the molar value.

Solved entries:
- Molecule: "CS(=O)(=O)c1ccc(C(=O)Nc2ccc(Cl)c(-c3ccccn3)c2)c(Cl)c1"
  pIC50: "< 5.00"
- Molecule: "CC(C)CCN1c2nc(Nc3cc(F)c(O)c(F)c3)ncc2N(C)C(=O)C1C (stereo not drawn)"
  pIC50: "< 5.30"

# next molecule below
Consider the molecule Oc1ccc2ccccc2c1SSc1c(O)ccc2ccccc12 and give its measured pIC50.
< 4.49
